system: BLM-dWH (Homo sapiens, UniProt P54132 642-1077)
Sequence (P54132 642-1077): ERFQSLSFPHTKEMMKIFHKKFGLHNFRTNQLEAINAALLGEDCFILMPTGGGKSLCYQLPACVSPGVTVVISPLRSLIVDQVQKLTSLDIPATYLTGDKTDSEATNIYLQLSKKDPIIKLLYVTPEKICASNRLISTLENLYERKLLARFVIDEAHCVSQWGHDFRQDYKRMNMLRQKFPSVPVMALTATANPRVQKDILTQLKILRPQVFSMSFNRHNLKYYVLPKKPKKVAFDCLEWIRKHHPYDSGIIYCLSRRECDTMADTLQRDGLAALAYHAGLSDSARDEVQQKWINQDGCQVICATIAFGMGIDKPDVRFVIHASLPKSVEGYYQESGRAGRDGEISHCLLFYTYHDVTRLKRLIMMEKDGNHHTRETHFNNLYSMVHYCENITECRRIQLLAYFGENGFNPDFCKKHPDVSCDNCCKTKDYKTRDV
protocol: competition fluorescence anisotropy; vs ss54-FLU; 5 mM MgCl2; 50 mM Tris-HCl pH 7.5, 50 mM NaCl, 1 mM DTT, 5 mM MgCl2, 50 µg/mL BSA, 25 °C; 10 nM labeled DNA in direct titrations
test settings: protein: recombinant; label: 5'-Cy3 on D3; 20 bp duplex, 3' overhang 21 nt on D3
readout type: pKd
Note on units: pKd is unitless, being -log10 of a concentration expressed in mol/L.

Given item 3T (Cy3) (dsDNA) DNA 1: TAAGAGCAAGATGTTCTATAAAAGATGTCCTAGCAAGGCAC DNA 2: TATAGAACATCTTGCTCTTA , the value recorded as its pKd is 6.37
